Target Or System: UniProtKB P9WPX7
Protocol: Reversible inhibition of Mycobacterium tuberculosis DHQ2
Active and inactive are the calls of the source. The rule behind the calls is not given here.
Experimental Endpoint: inhibition

Study these solved cases before continuing.
O=C(O)[C@@]1(O)C[C@@H](O)[C@H](O)C(OCc2cccs2)=C1Cc1ccc2sccc2c1; Active
Cc1ccc2sc(COC3=C[C@@](O)(C(=O)O)C[C@@H](O)[C@@H]3O)cc2c1; Active
O=C(O)[C@@]1(O)C[C@@H](O)[C@H](O)C(OCc2ccc3ccccc3c2)=C1Cc1ccc2ccccc2c1; Active
Cc1ccc2sc(CC3=C(OCc4cccs4)[C@@H](O)[C@H](O)C[C@]3(O)C(=O)O)cc2c1; Active
O=C(O)[C@]1(O)C=C(OCc2ccc3sccc3c2)[C@@H](O)[C@H](O)C1; Active

For this compound ( `Cc1ccc2sc(COC3=C(Cc4cc5cc(C)ccc5s4)[C@@](O)(C(=O)O)C[C@@H](O)[C@@H]3O)cc2c1` ), measured inhibition is Active

get_value(item= `O=C(O)[C@@]1(O)C[C@@H](O)[C@H](O)C(OCc2cc3ccccc3s2)=C1Cc1cc2ccccc2s1` , readout=inhibition) returns Active

###

Target Or System: 3-dehydroquinate dehydratase (Mycobacterium tuberculosis)
Sequence (P9WPX7 whole entry): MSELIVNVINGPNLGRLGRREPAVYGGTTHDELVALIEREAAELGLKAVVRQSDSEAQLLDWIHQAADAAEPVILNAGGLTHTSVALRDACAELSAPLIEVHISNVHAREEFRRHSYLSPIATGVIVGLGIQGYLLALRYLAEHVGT
Please provide measured Ki for the entries that follow.
# value in nM; strip the unit string

Just so you know, measured Ki for `O=C(O)[C@]1(O)C=C(OCc2cc3ccccc3s2)[C@@H](O)[C@H](O)C1` came out at 28

// recorded Ki for `O=C(O)[C@]1(O)C=C(OCc2ccc3ccccc3c2)[C@@H](O)[C@H](O)C1` : 35

Value of measured Ki for the entry `O=C(O)[C@@]1(O)C[C@@H](O)[C@H](O)C(OCc2ccc3ccccc3c2)=C1Cc1ccc2ccccc2c1` : 6000

###

Target Or System: 3-dehydroquinate dehydratase (Helicobacter pylori (strain ATCC 700392 / 26695) (Campylobacterpylori))
Sequence (Q48255 whole entry): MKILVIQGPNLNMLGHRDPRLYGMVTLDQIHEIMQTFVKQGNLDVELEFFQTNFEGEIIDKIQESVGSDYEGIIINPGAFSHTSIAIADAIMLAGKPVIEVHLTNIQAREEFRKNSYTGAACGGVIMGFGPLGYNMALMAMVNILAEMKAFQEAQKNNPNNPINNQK
Protocol: Competitive inhibition of Helicobacter pylori DHQ2
Experimental Endpoint: Ki (nM)
Give just the numeric value; nM need not be written.

Measured Ki of `O=C(O)[C@@]1(O)C[C@@H](O)[C@H](O)C(OCc2cc3ccccc3s2)=C1Cc1cccs1` : 280

The reported Ki of the molecule `O=C(O)[C@]1(O)C=C(OCc2ccc3ccccc3c2)[C@@H](O)[C@H](O)C1` was 310

Note to self: Ki recorded for `O=C(O)[C@@]1(O)C[C@@H](O)[C@H](O)C(OCc2cc3ccc(Cl)cc3s2)=C1Cc1cc2ccc(Cl)cc2s1` was 6700

Form: molecule = `O=C(O)[C@@]1(O)C[C@@H](O)[C@H](O)C(OCc2ccc3ccccc3c2)=C1Cc1ccc2ccccc2c1` ; Ki = 260

// field: Ki; key: `O=C(O)[C@@]1(O)C[C@@H](O)[C@H](O)C(OCc2ccc3sccc3c2)=C1Cc1ccc2sccc2c1` ; value = 140

GET /value?item= `O=C(O)[C@@]1(O)C[C@@H](O)[C@H](O)C(OCc2cc3ccccc3s2)=C1Cc1cc2ccccc2s1` &field=Ki returns 97

Looking up `O=C(O)[C@@]1(O)C[C@@H](O)[C@H](O)C(OCc2cccs2)=C1Cc1cccs1` , I found its Ki recorded as 14600

Query `O=C(O)[C@@]1(O)C[C@@H](O)[C@H](O)C(OCc2cccs2)=C1Cc1ccc2sccc2c1` yields Ki of 100

###

Test system: Mycobacterium tuberculosis
Protocol: Antimicrobial activity against Mycobacterium tuberculosis H37Rv by Microplate Alamar blue assay
Format: functional
Experimental Endpoint: MIC (µg/mL)
Return type: number; implicit unit µg/mL.

Reported MIC ( `CCOC(=O)[C@@]1(O)C[C@@H](O)[C@H](O)C(OCc2ccc3sccc3c2)=C1Cc1ccc2sccc2c1` ) = 160

Reported MIC ( `CCCC(=O)O[C@@H]1C(OCc2ccc3sccc3c2)=C[C@@](O)(C(=O)OCC)C[C@H]1OC(=O)CCC` ) = 5

Sample `CCOC(=O)[C@]1(O)C=C(OCc2ccc3sccc3c2)[C@@H](O)[C@H](O)C1` ; MIC observed: 40

Briefly, MIC measured for `CCCOC(=O)[C@]1(O)C=C(OCc2cc3ccc(Cl)cc3s2)[C@@H](O)[C@H](O)C1` : 40

###

Target Or System: 3-dehydroquinate dehydratase (Helicobacter pylori (strain ATCC 700392 / 26695) (Campylobacterpylori), UniProt Q48255)
Protocol: Competitive inhibition of Helicobacter pylori DHQ2
Can you tell me Ki for the items I'm about to list?
# unit: nM | format: bare number

Recorded Ki (molecule `Cc1ccc2sc(COC3=C(Cc4cc5cc(C)ccc5s4)[C@@](O)(C(=O)O)C[C@@H](O)[C@@H]3O)cc2c1` ): 50

Per the record, `Cc1ccc2sc(CC3=C(OCc4cccs4)[C@@H](O)[C@H](O)C[C@]3(O)C(=O)O)cc2c1` has Ki of 279

Value of Ki reported for the molecule `O=C(O)[C@]1(O)C=C(OCc2cc3ccc(Cl)cc3s2)[C@@H](O)[C@H](O)C1` is 205

###

I'd appreciate it if you could supply MIC values for the items below.
Tested on: Mycobacterium tuberculosis
Protocol: Antimicrobial activity against Mycobacterium tuberculosis H37Rv by Microplate Alamar blue assay
Assay type: functional

Record `CCOC(=O)[C@]1(O)C=C(OCc2cc3ccccc3s2)[C@@H](O)[C@H](O)C1` , field MIC: 40 µg/mL

Recorded MIC (compound `CCCC(=O)O[C@@H]1C(OCc2ccc3ccccc3c2)=C[C@@](O)(C(=O)OCC)C[C@H]1OC(=O)CCC` ): 5 µg/mL

Item: `CCCC(=O)O[C@@H]1C(OCc2ccc3ccccc3c2)=C[C@@](O)(C(=O)OCC)C[C@H]1O` | MIC: 10 µg/mL

Reported MIC ( `CCCOC(=O)[C@]1(O)C=C(OCc2ccc3sccc3c2)[C@@H](OC(=O)CCC)[C@H](OC(=O)CCC)C1` ) = 20 µg/mL

Field MIC (entry `CCCOC(=O)[C@]1(O)C=C(OCc2cc3ccccc3s2)[C@@H](O)[C@H](O)C1` ) reads 5 µg/mL

Measured MIC of `CCCOC(=O)[C@]1(O)C=C(OCc2ccc3sccc3c2)[C@@H](O)[C@H](O)C1` : 20 µg/mL

Memo: `COC(=O)[C@]1(O)C=C(OCc2cc3cc(C)ccc3s2)[C@@H](O)[C@H](O)C1` , reported MIC: > 160 µg/mL

Record `COC(=O)[C@]1(O)C=C(OCc2cc3ccccc3s2)[C@@H](O)[C@H](O)C1` , field MIC: > 160 µg/mL

MIC in this record for `COC(=O)[C@]1(O)C=C(OCc2ccc3sccc3c2)[C@@H](O)[C@H](O)C1` : > 160 µg/mL

###

Tested on: Mycobacterium tuberculosis
Protocol: Antimicrobial activity against Mycobacterium tuberculosis H37Rv by Microplate Alamar blue assay
Type: functional
Experimental Endpoint: MIC (mg/L)
Respond with the bare value in mg/L.

Reported MIC for `COC(=O)[C@@]1(O)C[C@@H](O)[C@H](O)C(OCc2cc3ccc(Cl)cc3s2)=C1Cc1cc2ccc(Cl)cc2s1` was 80

For this compound ( `CCCOC(=O)[C@]1(O)C=C(OCc2ccc3sccc3c2)[C@@H](OC(=O)CCC)[C@H](O)C1` ), measured MIC is 5

The recorded MIC for `CCOC(=O)[C@]1(O)C=C(OCc2ccc3ccccc3c2)[C@@H](O)[C@H](O)C1` is 20

Input `CCCOC(=O)[C@]1(O)C=C(OCc2ccc3ccccc3c2)[C@@H](O)[C@H](O)C1` . Output MIC: 10

Record `CCCOC(=O)[C@]1(O)C=C(OCc2ccc3ccccc3c2)[C@@H](OC(=O)CCC)[C@H](OC(=O)CCC)C1` . Reported MIC: 5

Form field MIC, entry `CCOC(=O)[C@]1(O)C=C(OCc2cc3ccc(Cl)cc3s2)[C@@H](O)[C@H](O)C1` : 40

###

So I've got a bunch of compounds here, and I need their log10(Ki) values.
Target Or System: 3-dehydroquinate dehydratase (Mycobacterium tuberculosis, UniProt P9WPX7)
Sequence (P9WPX7 whole entry): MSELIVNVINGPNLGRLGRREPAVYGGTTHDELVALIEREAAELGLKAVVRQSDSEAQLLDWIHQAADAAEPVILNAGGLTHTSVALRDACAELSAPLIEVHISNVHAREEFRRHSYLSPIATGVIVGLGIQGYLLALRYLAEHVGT
Note the log scale: values are log10 of Ki expressed in nM.

For reference, reported log10(Ki) for `O=C(O)[C@@]1(O)C[C@@H](O)[C@H](O)C(OCc2cc3ccc(Cl)cc3s2)=C1Cc1cc2ccc(Cl)cc2s1` stands at 3.04

`O=C(O)[C@]1(O)C=C(c2cccs2)[C@@H](O)[C@H](O)C1` has a reported log10(Ki) of 2.40

Given item `Cc1ccc2sc(CC3=C(OCc4cccs4)[C@@H](O)[C@H](O)C[C@]3(O)C(=O)O)cc2c1` , the value recorded as its log10(Ki) is 2.94

The recorded log10(Ki) for `O=C(O)[C@@]1(O)C[C@@H](O)[C@H](O)C(OCc2cccs2)=C1Cc1ccc2sccc2c1` is 1.77

For record `O=C(O)[C@@]1(O)C[C@@H](O)[C@H](O)C(OCc2cc3ccccc3s2)=C1Cc1cc2ccccc2s1` the listed log10(Ki) is 1.60

The recorded log10(Ki) for entry `O=C(O)[C@]1(O)C=C(OCc2cc3ccc(Cl)cc3s2)[C@@H](O)[C@H](O)C1` equals 1.54

Reported log10(Ki) ( `O=C(O)[C@@]1(O)C[C@@H](O)[C@H](O)C(OCc2cccs2)=C1Cc1cccs1` ) = 3.71

Lab book: log10(Ki) of `O=C(O)[C@]1(O)C=C(/C=C/COc2ccc(F)cc2)[C@@H](O)[C@H](O)C1` noted as 2.08

# log10(Ki) (compound: `O=C(O)[C@]1(O)C=C(OCc2cccs2)[C@@H](O)[C@H](O)C1` ) is 2.37
